assay: RORgamma Gal4 Reporter Gene Assay (REN): Cells were incubated for additional 16 h before renilla (REN) luciferase activities were measured sequentially in the same cell extract using a Dual-Light-Luciferase-Assay system (Dyer et al., Anal. Biochem. 2000, 282:158). All experiments were done at least in triplicates.
Please respond with reported IC50 for every item in the list.
Answers are plain numbers, in nM.

Previously resolved entries follow.
compound=CC(C)(C)NS(=O)(=O)c1ccc(-c2sc(C(=O)N[C@H]3C[C@H](C(=O)O)C3)nc2CC2CCCCC2)cc1C(C)(C)O result_number=10
compound=CC(C)(C)NS(=O)(=O)c1ccc(-c2sc(C(=O)NC3CS(=O)(=O)C3)nc2CC2CCCCC2)cc1C(C)(C)O result_number=12.6

Hi! Can you tell me IC50 for each of these compounds?
1. CN(C(=O)c1nc(CC2CCCCC2)c(-c2cc(C(C)(C)C)cc(C3(C)CC3)c2)s1)C1CCOCC1
2. CC(C)(C)NS(=O)(=O)c1ccc(-c2sc(C(=O)NC3CCS(=O)(=O)CC3)nc2CC2CCCCC2)c(Cl)c1Cl
3. C[C@H](NC(=O)c1cc(-c2sc(C(=O)NCC(C)(C)c3noc(=O)[nH]3)nc2CC2CCCCC2)cc(C2(C)CC2)c1)C(F)(F)F
4. CC(C)(C)NS(=O)(=O)c1ccc(-c2oc(C(=O)N[C@H]3C[C@H](C(=O)NS(C)(=O)=O)C3)nc2CC2CCCCC2)c2ccccc12
5. CC1CCN(C(=O)c2nc(C(=O)N3CC4(CCS(=O)(=O)CC4)C3)oc2-c2ccc(S(=O)(=O)NC(C)(C)C)c3ccccc23)CC1
6. CC(C)(C)NS(=O)(=O)c1ccc(-c2sc(C(=O)NC3CCC3)[n+]([O-])c2CC2CCCCC2)c2ccccc12
7. CC(C)(C)c1cc(-c2sc(S(N)(=O)=O)nc2CC2CCCCC2)cc(C(C)(C)C)c1
8. CC(C)(C)NS(=O)(=O)c1ccc(-c2sc(C(=O)NN3CCOCC3)nc2CC2CCCCC2)c(Cl)c1Cl

Output:
1: 126; 2: 2; 3: 5.01; 4: 200; 5: 2510; 6: 31.6; 7: 398; 8: 2

###

test: RORgamma Gal4 Reporter Gene Assay (REN): Cells were incubated for additional 16 h before renilla (REN) luciferase activities were measured sequentially in the same cell extract using a Dual-Light-Luciferase-Assay system (Dyer et al., Anal. Biochem. 2000, 282:158). All experiments were done at least in triplicates.
Observation Type: IC50 (nM)
Answers are plain numbers, in nM.

molecule=CC(C)(C)NS(=O)(=O)c1ccc(-c2sc(C(=O)N3CC(C(C)(C)C(=O)O)C3)nc2CC2CCCCC2)c(Cl)c1Cl result_number=126
molecule=CC(C)(CO)NS(=O)(=O)c1ccc(-c2sc(C(=O)N3CC4(CCS(=O)(=O)CC4)C3)nc2CC2CCCCC2)c2ccccc12 result_number=79.4
molecule="CC1CCCCN1C(=O)c1nc(C(=O)NCC(C)(C)O)sc1-c1ccc(S(=O)(=O)NC(C)(C)C)c2ccccc12 (stereo not drawn)" result_number=50.1

Hi! Can you tell me IC50 for each of these molecules?
1. CC(C)(C)NS(=O)(=O)c1ccc(-c2sc(C(=O)NC3CCOCC3)nc2CC2CCCCC2)cc1C(C)(C)C
2. O=C(NC1CCS(=O)(=O)CC1)c1nc(CC2CCCCC2)c(-c2ccc(N3CCOCC3)c3ccccc23)s1
3. CC(C)(O)CN1CCN(C(=O)c2nc(CC3CCCCC3)c(-c3ccc(S(=O)(=O)NC(C)(C)C)c4ccccc34)s2)CC1
4. C[C@H](NS(=O)(=O)c1ccc(-c2sc(C(=O)NCC(C)(C)O)nc2CC2CCC2)c(C(F)(F)F)c1)C(F)(F)F
5. CC(C)(C)NS(=O)(=O)c1ccc(-c2sc(C(=O)NC3CCS(=O)(=O)CC3)nc2C2CCCCC2)c2ccccc12

Output:
[12.6, 126, 126, 20, 6.31]

###

Please respond with reported IC50 for every item in the list.
assay: RORgamma Gal4 Reporter Gene Assay (REN): Cells were incubated for additional 16 h before renilla (REN) luciferase activities were measured sequentially in the same cell extract using a Dual-Light-Luciferase-Assay system (Dyer et al., Anal. Biochem. 2000, 282:158). All experiments were done at least in triplicates.
One number for each entry, in nM.

Previously resolved entries follow.
molecule=CC(C)(C)NS(=O)(=O)c1ccc(-c2sc(C(=O)NC3CCS(=O)(=O)CC3)nc2-c2cccc(Cl)c2)c2ccccc12 unit_of_measure=nM result_number=6.31
molecule=CC(C)(C)NS(=O)(=O)c1ccc(-c2sc(C(=O)NCCC(C)(C)C(=O)O)nc2CC2CCCCC2)cc1C(F)(F)F unit_of_measure=nM result_number=39.8
molecule="COC(c1nc(C(=O)NC2CCOCC2)sc1-c1ccc(S(=O)(=O)NC(C)(C)C)c(C(C)(C)C)c1)C1CCCCC1 (stereo not given)" unit_of_measure=nM result_number=200
molecule=CC(C)(C)NS(=O)(=O)c1ccc(-c2sc(C(=O)NC3CC3)nc2CC2CCCCC2)c(Cl)c1Cl unit_of_measure=nM result_number=10

Input: Could you tell me which IC50 is on file for CC(C)(C)NS(=O)(=O)c1ccc(-c2sc(C(=O)NN3CCS(=O)(=O)CC3)nc2CC2CCCCC2)c(Cl)c1Cl ?
Output: 2
